Biological target: hPPARα (Homo sapiens, UniProt Q07869)
Construct: expressed in transfected cells; host or cells: HEK-293
Sequence (Q07869 239-466 limits assumed): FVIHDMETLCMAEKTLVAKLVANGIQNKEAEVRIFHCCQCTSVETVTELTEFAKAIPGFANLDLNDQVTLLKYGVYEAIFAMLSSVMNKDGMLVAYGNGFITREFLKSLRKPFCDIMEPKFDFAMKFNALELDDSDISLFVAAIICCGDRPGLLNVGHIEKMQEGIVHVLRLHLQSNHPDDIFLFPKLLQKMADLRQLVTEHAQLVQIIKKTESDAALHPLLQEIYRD
Experiment: Determination of hPPARα activity (GAL4-LBD luciferase reporter transactivation in HEK-293 cells)
Format: cell-based
Settings: 50 μM compound
Binary classification by PPAR fold activation, PPAR α at 50 μM concentration, with 5 fold as an inclusive lower bound for true; all other cases are false.

Solved cases (3 shown):
| compound | category label |
| --- | --- |
| CCOC(Cc1ccc(NCCCn2ccc3ccccc32)cc1)C(=O)O (centres unmarked) [Example 47] | false |
| CCOC(Cc1ccc(NCCCN2CCc3ccccc32)cc1)C(=O)O (centres unmarked) [Example 52] | false |
| CCOC(Cc1ccc(NCc2ccc3cc(OS(C)(=O)=O)ccc3c2)cc1)C(=O)O (centres unmarked) [Example 24] | true |

Determine whether measured PPAR fold activation, PPAR α at 50 μM concentration meets or exceeds 5 fold for CCO[C@@H](Cc1ccc(NCCCn2ccc3cc(OS(C)(=O)=O)ccc32)cc1)C(=O)O [Example 49]
false

Determine whether measured PPAR fold activation, PPAR α at 50 μM concentration meets or exceeds 5 fold for CO[C@@H](Cc1ccc(NCCCn2ccc3cc(OS(C)(=O)=O)ccc32)cc1)C(=O)O [Example 50]
false
